src = the supplement of paper PMC10567573

B1: PPFIA4 (parent)
chain: PGVHRRYSALREESAKDWETSPLP

# Variants of: B1
# Experiment Notes: protein stability index of a GFP-peptide fusion (GPS, HEK-293T) (PSI 1-6); higher = more stable;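 further: lentivirally expressed fusions sorted by FACS into six bins by GFP to DsRed ratio, PSI derived from sequencing read proportions per bin multiplied by bin number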
# Measurement Context: c terminus: a fixed tail appended
Experimental Endpoint: protein stability index

# Sequence Input, protein stability index
data = [
    ("PGVHRRYSALREESAKDWETSPLM [P24M]", 3.97),
]

Task item: Data request, read-out protein stability index, for PKVHRRYSALREESAKDWETSPLP [G2K]
Reply: 3.98

Task item: Data request, read-out protein stability index, for PGVHRRYSALREVSAKDWETSPLP [E13V]
Reply: 4.06
